Subject of test: human ether-à-go-go-related gene (hERG) potassium channel (human)
Sequence (Q12809 whole entry, looked up): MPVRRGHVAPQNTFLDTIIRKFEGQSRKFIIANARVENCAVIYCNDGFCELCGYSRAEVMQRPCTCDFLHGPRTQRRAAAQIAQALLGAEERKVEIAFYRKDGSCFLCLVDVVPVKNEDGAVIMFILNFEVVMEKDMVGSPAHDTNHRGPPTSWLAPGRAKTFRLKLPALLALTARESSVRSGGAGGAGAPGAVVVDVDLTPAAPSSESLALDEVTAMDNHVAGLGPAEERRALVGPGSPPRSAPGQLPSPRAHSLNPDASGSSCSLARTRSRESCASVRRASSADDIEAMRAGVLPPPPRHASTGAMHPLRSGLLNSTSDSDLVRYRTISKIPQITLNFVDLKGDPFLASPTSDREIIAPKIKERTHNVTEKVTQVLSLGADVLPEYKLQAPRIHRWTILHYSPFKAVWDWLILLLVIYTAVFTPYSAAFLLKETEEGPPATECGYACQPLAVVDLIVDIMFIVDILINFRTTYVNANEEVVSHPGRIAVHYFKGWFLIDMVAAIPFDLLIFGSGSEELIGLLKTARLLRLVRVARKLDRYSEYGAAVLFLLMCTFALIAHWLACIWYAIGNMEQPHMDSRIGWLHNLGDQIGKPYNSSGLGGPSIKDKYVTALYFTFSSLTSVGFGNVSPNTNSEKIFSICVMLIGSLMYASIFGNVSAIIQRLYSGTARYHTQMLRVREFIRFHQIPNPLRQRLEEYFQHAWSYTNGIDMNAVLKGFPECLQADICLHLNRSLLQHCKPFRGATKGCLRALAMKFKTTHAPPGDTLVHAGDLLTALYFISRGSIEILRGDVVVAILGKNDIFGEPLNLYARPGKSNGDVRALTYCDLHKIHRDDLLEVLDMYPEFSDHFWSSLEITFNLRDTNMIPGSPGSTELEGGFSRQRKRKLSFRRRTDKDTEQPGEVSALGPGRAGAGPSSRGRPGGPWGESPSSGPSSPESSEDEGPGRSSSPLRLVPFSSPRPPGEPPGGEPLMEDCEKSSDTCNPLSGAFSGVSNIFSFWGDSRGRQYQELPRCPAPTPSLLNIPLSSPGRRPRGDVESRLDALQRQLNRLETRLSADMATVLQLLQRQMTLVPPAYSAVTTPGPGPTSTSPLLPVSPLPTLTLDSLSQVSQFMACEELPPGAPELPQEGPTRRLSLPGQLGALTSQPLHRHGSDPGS
Test description: primary screen, population patch clamp on CHO cells stably expressing hERG; higher = less effect of the substance;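 also: peak tail current of the secondary pulse compared with the same well before compound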
The whole screen tested about 310,000 compounds, of which about 14,000 (4.5%) showed an effect of 50% or more. The effect is printed as a negative number. This excerpt belongs to a sample that is enriched for strong results.
List of hERG current change (%, negative = inhibition) at 10uM values.
Reported metric: hERG current change (%, negative = inhibition) at 10uM (%)

> print(dat)
                                    molecule  units.symbol  measured
 1  O=C1C2CCCN2C(c2ccccc2)N1c1nccs1 (stereo not shown)             %      17.7
 2  C=CCOC(=O)C1=C(C)NC(=S)NC1/C=C/c1ccccc1 (stereo not shown)             %     -4.63
 3  Cc1ccc(NC(=O)CNCC(c2ccccc2)N(C)C)cc1F.O=C(O)C(=O)O (stereo not shown)             %     -38.1
 4  CC(=O)c1ccc(NC(=O)CNCC(c2ccccc2)N(C)C)cc1.O=C(O)C(=O)O (stereo not shown)             %      2.26
 5  CC(=O)C1=C(O)C(=O)N(c2ccc(Br)cn2)C1c1ccccc1[N+](=O)[O-] (stereo not shown)             %      20.2
 6  CCOC(=O)c1cc(NC(=O)CNCC(c2ccccc2)N(C)C)cc(C(=O)OCC)c1.O=C(O)C(=O)O (stereo not shown)             %     -57.7
 7  Cc1ccc(C2N(c3nccs3)C(=O)C3CCCN32)cc1 (stereo not shown)             %     -4.54
 8  COc1ccc(Cl)cc1NC(=O)CNCC(c1ccccc1)N(C)C.O=C(O)C(=O)O (stereo not shown)             %     -73.9
 9  Cc1ccccc1C1N(c2nccs2)C(=O)C2CCCN21 (stereo not shown)             %     -62.5
10  CCN(CC)CCn1c(C)nc2c(sc3nc4c(cc32)COC(C)(C)C4)c1=O             %     -22.3
